Data credit: PubChem BioAssay (NCI)

System: NCI-H522 lung
Assay: NCI tumour cell line growth inhibition, 48 h
measured_quantity: TGI

Request: # query: TGI of entry `O=[N+]([O-])c1c2nc3n(c2cc2c1nc1n2CCC1)CCC3`
Result: > 100 µM

Request: # query: TGI of entry N#Cc1nc(CCC(c2nc(C#N)c(N)o2)N2C(=O)c3ccccc3C2=O)oc1N (configuration not stated)
Result: > 100 µM

Request: # query: TGI of entry `CCOC(=O)/C(=C\c1ccc[nH]1)C(=O)c1ccccc1`
Result: > 100 µM

Request: # query: TGI of entry `COc1ccc(-c2cc(-c3cc(F)c(Cl)cc3Cl)on2)cc1OC`
Result: > 100 µM

Request: # query: TGI of entry `N#Cc1c(N)nc(N2CCOCC2)c(C#N)c1-c1ccccc1Cl`
Result: 2.81 µM

Request: # query: TGI of entry `COc1cc(/C=C(\OC(C)=O)c2ccc3c(c2)OCO3)cc(OC)c1OC`
Result: 50.2 µM

Request: # query: TGI of entry C=C1C(=O)OC2CC(C)C3C=CC(=O)C3CC12 (configuration not stated)
Result: 1.95 µM

Request: # query: TGI of entry `Cc1nnc(-n2c(O)cc(=O)n(-c3ccccc3)c2=S)nc1/C=C/c1ccc(N(C)C)cc1`
Result: 8.33 µM

Request: # query: TGI of entry `OCc1ccc(N(CCN2CCCC2)Cc2ccc(F)cc2)cc1Cl`
Result: 34.4 µM

Request: # query: TGI of entry Cc1ccc(C(=O)Nc2ccc(S(=O)(=O)O)c3cc(S(=O)(=O)O)cc(S(=O)(=O)O)c23)cc1NC(=O)c1cccc(NC(=O)Nc2cccc(C(=O)Nc3cc(C(=O)Nc4ccc(S(=O)(=O)O)c5cc(S(=O)(=O)O)cc(S(=O)(=O)O)c45)ccc3C)c2)c1 (tested in a mixture with another compound)
Result: > 50 µM

Request: # query: TGI of entry CCOP(=O)(OCC)C1=NC=CC=CC1n1c(-c2ccccc2)nn(CC)c1=O (configuration not stated)
Result: > 100 µM

Request: # query: TGI of entry `Oc1ccccc1-c1n[nH]c(=S)n1/N=C/c1ccc(-c2ccc(Br)cc2)o1`
Result: > 100 µM

Request: # query: TGI of entry `Cn1c(=O)c(Oc2ccccc2)cc2cnc(NC3CCOCC3)nc21`
Result: > 25 µM

Request: # query: TGI of entry `C=C1C(=O)O[C@H]2[C@H]1CC/C(COC(=O)c1ccccc1)=C\CC[C@@]1(C)O[C@@H]21`
Result: 2.79 µM

Request: # query: TGI of entry N#C/C(=C\c1ccc(C(O)P(=O)(O)O)cc1)C(N)=O (configuration not stated)
Result: > 100 µM

Request: # query: TGI of entry `Cc1ccc2c(c1)CNc1ccc(C)cc1CN2`
Result: > 100 µM

Request: # query: TGI of entry `Cc1cc(=O)oc2cc(OS(C)(=O)=O)ccc12`
Result: > 100 µM

* * *

What TGI was measured for each of the following?
Test system: SK-MEL-2 melanoma
Experiment: NCI tumour cell line growth inhibition, 48 h

Request: # query: TGI of entry `CSc1nc2c(=O)n(-c3ccccc3)c(=S)n(-c3ccccc3)c2s1`
Result: > 100 µM

Request: # query: TGI of entry CC(NC(=O)C(N)CC(=O)O)NC(=O)N(C)C(C)(C)C (configuration not stated)
Result: > 100 µM

Request: # query: TGI of entry O=C1CCS/C(=N\S(=O)(=O)c2ccc(N3N=C4c5ccccc5CC4C3c3cccs3)cc2)N1C(=O)c1ccccc1 (configuration not stated)
Result: > 100 µM

Request: # query: TGI of entry COC(=O)c1ccccc1C1CN=NC12Cc1cccc(C)c1C2=O (configuration not stated)
Result: > 100 µM

Request: # query: TGI of entry Cc1ccc(S(=O)(=O)NC(=O)NC(Cc2ccc(O)c(O)c2)C(=O)O)cc1 (configuration not stated)
Result: > 100 µM

Request: # query: TGI of entry `COc1cc(/C=C2\C(=O)Nc3cccc(Cl)c32)cc(OC)c1OC`
Result: > 100 µM

Request: # query: TGI of entry CCC(C(=O)c1ccccc1)C(CCCC(=O)Nc1c(C)cccc1C)N=O (configuration not stated)
Result: > 100 µM

Request: # query: TGI of entry `CCN(CC)CCCOc1cc2c(cc1OC)C(=O)N1CCC[C@H]1C=N2`
Result: > 100 µM

Request: # query: TGI of entry `O=C(OCc1ccccc1)N1CCN(C(=O)OCc2ccccc2)CCN(C(=O)OCc2ccccc2)CCN(C(=O)OCc2ccccc2)CCN(C(=O)OCc2ccccc2)CC1`
Result: > 100 µM

Request: # query: TGI of entry `C[C@H](N)C(=O)N1C[C@H](CCCB(O)O)[C@](N)(C(=O)O)C1`
Result: > 100 µM

Request: # query: TGI of entry `Oc1cccc(-c2cn3cc(C(F)(F)F)ccc3n2)c1`
Result: > 100 µM

Request: # query: TGI of entry `CCOC(=O)Nc1nc2c(C)cccc2s1`
Result: > 100 µM

* * *

Tested on: MCF7 breast
Assay: NCI tumour cell line growth inhibition, 48 h
What TGI was measured for each of the following?

Request: # query: TGI of entry `Cc1nc2ccccc2n1Cc1nnc(N)o1`
Result: > 100 µM

Request: # query: TGI of entry `CC[C@@]12C=CC(=S)N(CCSc3ccccc3)[C@@H]1c1c(n(S(=O)(=O)c3ccc(OC)cc3)c3ccccc13)CC2`
Result: > 100 µM

Request: # query: TGI of entry `O=C1CCCC2=C1CC1=C(CCCC1=O)N2c1ccccc1`
Result: > 100 µM

Request: # query: TGI of entry CC1CCc2sc3[nH]c(=S)n(-c4ccccc4)c(=O)c3c2C1 (configuration not stated)
Result: > 100 µM

Request: # query: TGI of entry `CS(=O)(=O)OCCN(CCOS(C)(=O)=O)c1ccc(C=O)cc1`
Result: > 75.9 µM

Request: # query: TGI of entry `CC(C)Nc1ncc2cc(Oc3ccc(F)cc3F)c(=O)n(C)c2n1`
Result: > 25 µM

Request: # query: TGI of entry `NC(=O)c1nnsc1NC=O`
Result: > 100 µM

Request: # query: TGI of entry `C(=C\c1cc(-c2ccc3ccccc3n2)nc2ccc3ccccc3c12)/c1ccc2ccccc2n1`
Result: > 100 µM

Request: # query: TGI of entry `CCc1nc2ccc(C(F)(F)F)cc2[nH]c1=O`
Result: > 100 µM

Request: # query: TGI of entry COc1cc(C2c3cc4c(cc3[C@@H](Nc3cccc([N+](=O)[O-])c3)C3COC(=O)[C@H]23)OCO4)cc(OC)c1O (some centres not stated)
Result: > 100 µM

Request: # query: TGI of entry `C=CCN(c1cc(OC)c2[nH]cc(C)c2c1[N+](=O)[O-])S(C)(=O)=O`
Result: > 100 µM

Request: # query: TGI of entry `COc1ccc(-c2csc(NC(=O)c3cc(O)c(O)c(O)c3)n2)cc1`
Result: > 33.3 µM

* * *

System: OVCAR-3 ovarian
Test: NCI tumour cell line growth inhibition, 48 h
What GI50 was measured for each of the following?

Request: Param readout = GI50; param system = OVCAR-3 ovarian; param query = `CCOC(=O)Nc1nc2c(C)cccc2s1` ; response: value
Result: 41800 nM

Request: Param readout = GI50; param system = OVCAR-3 ovarian; param query = `O=C(Nc1ccccc1)Nc1cccc(Oc2nnc(Cl)c3ccccc23)c1` ; response: value
Result: 2640 nM

Request: Param readout = GI50; param system = OVCAR-3 ovarian; param query = `Oc1ccc(C#CCOc2ccccc2)cc1CNCCN(Cc1ccccn1)Cc1ccccn1` ; response: value
Result: 1470 nM

Request: Param readout = GI50; param system = OVCAR-3 ovarian; param query = `COc1cc2c(cc1OCCCCOc1ccc(-c3nc4ccccc4s3)cc1)N=C[C@@H]1CCCN1C2=O` ; response: value
Result: 477 nM

Request: Param readout = GI50; param system = OVCAR-3 ovarian; param query = O=C1CS/C(=N\S(=O)(=O)c2ccc(N3N=C4c5ccccc5CC4C3c3ccc(Cl)cc3)cc2)N1c1ccccc1 (stereo not given) ; response: value
Result: 48500 nM

* * *

Test system: SNB-75 CNS
Experiment: NCI tumour cell line growth inhibition, 48 h
measured_quantity: TGI

Request: # query: TGI of entry `COc1ccc(-c2cc(=O)c3c(OC)c(OC)c(OC)c(OC)c3o2)c(OC)c1`
Result: > 100 µM

Request: # query: TGI of entry `O=c1c2ccccc2[nH]c2cc(O)cc(O)c12`
Result: > 100 µM

Request: # query: TGI of entry `COc1ccc(OC)c2c(=S)c3ccccc3[nH]c12`
Result: > 100 µM

Request: # query: TGI of entry `Cc1ccc2c(c1)CNc1ccc(C)cc1CN2`
Result: > 100 µM

Request: # query: TGI of entry CC(C)CN(CC(C)C)C(=O)C1CCCC[C@@H]1C(=O)O (some centres not stated)
Result: > 100 µM

Request: # query: TGI of entry `Cc1cc(=O)oc2cc(OS(C)(=O)=O)ccc12`
Result: > 100 µM

Request: # query: TGI of entry `COc1cc2c(cc1OC)-c1cc3cc(OC)c(OC)cc3c(=O)n1CC2`
Result: > 79.3 µM

Request: # query: TGI of entry `Cc1nc2ccccc2n1Cc1nnc(N)o1`
Result: > 100 µM

Request: # query: TGI of entry O=C(NCc1ccncc1)C1COc2cc(-c3cc(=O)c4ccccc4o3)ccc2O1 (configuration not stated)
Result: > 100 µM

Request: # query: TGI of entry `CC1(C)CC(Nc2ccc(Nc3ccccc3)cc2)CC(C)(C)N1`
Result: > 100 µM

Request: # query: TGI of entry `CCOC(=O)CSc1[nH]c(NC(=S)Nc2ccccc2)c(C(N)=O)c1C(N)=O`
Result: > 10 µM

Request: # query: TGI of entry `Cn1c(=O)c2c(nc(Nc3ccc(Cl)cc3)n3c(=O)n(-c4ccccc4)c(=O)n23)n(C)c1=O`
Result: > 100 µM
